# Test system: MALME-3M melanoma
# assay-text: NCI-60 one-dose screen, 48 h (100 = growth as untreated, 0 = no growth, -100 = all killed)
# reported-conditions: 10 µM unless noted
This is part of a sample that, as a whole, favours compounds with a hit. Of some 83,000 tested, about 20% had one in any assay.
# if measured growth < 70%: Yes  # else: No

Worked examples, 5 compounds total:
{"compound": "COc1cc(/C=N/NC(=O)c2ccccc2Nc2cccc(C(F)(F)F)c2)ccc1O", "answer-label": "No"}
{"compound": "Cc1cccc(Oc2ccc(Nc3ncnc4ccc(NC(=O)CN(C)C)cc34)cc2Cl)c1", "answer-label": "Yes"}
{"compound": "Cc1c(C2=CCCCC2)c2ccccn2c1C(=O)c1cccc(S(=O)(=O)N2CCOCC2)c1", "answer-label": "No"}
{"compound": "Cc1ccc(C2CC(c3cccc(Nc4ccncc4)c3)=NN2c2cc(Cl)cc(Cl)c2)cc1 (stereo unspecified)", "answer-label": "Yes"}
{"compound": "COc1ccc2c(Nc3ccc(NS(C)(=O)=O)cc3)c3ccccc3nc2c1", "answer-label": "Yes"}

Now examine the next entry.
**Query** Lab note: growth threshold 70%. Does this compound come in strictly under it? CC(C)(C)OC(=O)N1C/C(=C\c2ccoc2)C(=O)/C(=C/c2ccoc2)C1
**Result** No

====

# Test system: MDA-MB-231 breast
# assay-text: NCI-60 one-dose screen, 48 h
# reported-conditions: 10 µM unless noted
The panel holds about 83,000 compounds, 20% with a hit somewhere; the sample as a whole holds those more often. Active and inactive are the calls of the source. How the source made its calls: active means growth percent below 10; inactive means the rest.
Choose one outcome from this list and give only that: active, inactive

Worked examples, 6 compounds total:
{"compound": "Cc1ccc2nc3c(cc2c1)CSc1nnc(-c2ccc[nH]c2=S)n1N3", "answer-label": "inactive"}
{"compound": "C=C1C(=O)O[C@H]2[C@H]1CC/C(COC(=O)/C=C/c1c[nH]c3ccccc13)=C\\CC[C@@]1(C)O[C@@H]21", "answer-label": "active"}
{"compound": "CC1(C)CN(Cc2ccccc2)CCN1Cc1ccccc1", "answer-label": "inactive"}
{"compound": "O=C1c2ccccc2C(=O)c2c(NCCN=Cc3ccccc3O)cccc21", "answer-label": "inactive"}
{"compound": "Clc1ccc(C2CC(c3cccc(Nc4ccncc4)c3)=NN2c2ccc(Cl)cc2)cc1 (stereo not given)", "answer-label": "inactive"}
{"compound": "Cc1ccccc1C(c1ccccc1)c1ccccc1C", "answer-label": "inactive"}

**Query** # outcome recorded in this test, key = COc1cccc(/C=C2\COc3ccc(-c4ccccc4)cc3C2=O)c1
**Result** inactive

**Query** # outcome recorded in this test, key = O=S(=O)(c1ccc(N/N=C\c2ccccc2)cc1)c1ccc(N/N=C/c2ccccc2)cc1
**Result** inactive

**Query** # outcome recorded in this test, key = COc1cc(/C=N/NC(=O)c2ccccc2Nc2cccc(C(F)(F)F)c2)ccc1O
**Result** inactive

**Query** # outcome recorded in this test, key = Cc1ccc(C2CC(c3cccc(Nc4ccncc4)c3)=NN2c2cc(Cl)cc(Cl)c2)cc1 (stereo not given)
**Result** inactive

====

# System: RPMI-8226 leukemia
# assay-text: NCI-60 one-dose screen, 48 h
# reported-conditions: 10 µM unless noted
This is part of a sample that, as a whole, favours compounds with a hit. Of some 83,000 tested, about 20% had one in any assay. Calls of active or inactive are those of the source. The calls were made as follows: active = growth percent below 10; inactive = the rest.
Choose one outcome from this list and give only that: T for active, F for inactive

Worked examples, 5 compounds total:
{"compound": "O=S(=O)(NCCNc1nccc(-c2c(-c3ccc(F)c(O)c3)nc3occn23)n1)c1ccccc1", "answer-label": "F"}
{"compound": "CC1=NNC(=O)C1CCC(=O)N/N=C(\\C)c1ccc2ccccc2c1 (stereo not drawn)", "answer-label": "F"}
{"compound": "O=S(=O)(NCCCNc1nccc(-c2c(-c3cccc(O)c3)nc3occn23)n1)c1ccc(F)cc1", "answer-label": "F"}
{"compound": "O=C1c2cccnc2C(=O)c2nc3cc(N4CCN(C5CC5)CC4)ccc3nc21", "answer-label": "F"}
{"compound": "CC1CCN(C(=O)OCc2nc3nc(Cl)nc(N4CCOCC4)c3[nH]2)CC1", "answer-label": "T"}

**Query** # outcome recorded in this test, key = N#C/C(=C\c1ccc(Br)cc1)n1nnc2cccc(F)c21
**Result** T

**Query** # outcome recorded in this test, key = Cc1c2c(cc[n+]1Cc1ccc(F)cc1)c1ccc(OCc3cccc(F)c3)cc1n2Cc1cccc(F)c1
**Result** T

**Query** # outcome recorded in this test, key = COc1ccc(CC(C)=C(c2ccc(OCCN(C)C)cc2)c2ccc(OCCN(C)C)cc2)cc1
**Result** F

**Query** # outcome recorded in this test, key = COc1ccc(-c2nc(N/N=C/c3c[nH]c4ccccc34)nc(N3CCOCC3)c2C#N)cc1
**Result** F

**Query** # outcome recorded in this test, key = N/C(=N\N=C\c1cc2ccccc2s1)N/N=C/c1cc2ccccc2s1
**Result** F

**Query** # outcome recorded in this test, key = CC(C)(C)OC(=O)N1C/C(=C\c2ccoc2)C(=O)/C(=C/c2ccoc2)C1
**Result** T

**Query** # outcome recorded in this test, key = COc1ccccc1/C=C1\COc2ccc(-c3ccccc3)cc2C1=O
**Result** T

**Query** # outcome recorded in this test, key = COc1cc(NCCCN(CC(C)C)C2CCCC2)c2ncccc2c1
**Result** F

====

# Tested on: HT29 colon
# assay-text: NCI-60 one-dose screen, 48 h
# reported-conditions: 10 µM unless noted
Compounds without any hit were thinned out: in the full panel of roughly 83,000, 20% have a hit. Active and inactive are the calls of the source. Rule for the calls: active = growth percent below 10; inactive = the rest.
Choose one outcome from this list and give only that: active, inactive

Worked examples, 6 molecules total:
{"molecule": "O=C(N/N=C/c1cccc(O)c1)c1ccccc1Nc1cccc(C(F)(F)F)c1", "answer-label": "inactive"}
{"molecule": "CC1CCN(C(=O)OCc2nc3nc(Cl)nc(N4CCOCC4)c3[nH]2)CC1", "answer-label": "active"}
{"molecule": "O=C1Nc2c(ccc(Cl)c2Cl)/C1=C/c1ccc([N+](=O)[O-])cc1", "answer-label": "inactive"}
{"molecule": "COc1ccc(-c2nn(Cc3ccccc3)c3c2-c2oncc2CC3)cc1OC", "answer-label": "inactive"}
{"molecule": "CCNC(=O)c1[nH]cc(-c2ccc(OC)cc2)c1-c1cc(OC)cc(OC)c1", "answer-label": "inactive"}
{"molecule": "C=CCn1c(SCC(=O)Nc2ccc(C(=O)/C=C/c3cc(OC)c(OC)c(OC)c3)cc2)nnc1-c1cc(-c2ccc(S(C)(=O)=O)cc2)nc2ccccc12", "answer-label": "inactive"}

**Query** # outcome recorded in this test, key = CC(C)(C)OC(=O)N1C/C(=C\c2ccoc2)C(=O)/C(=C/c2ccoc2)C1
**Result** inactive

**Query** # outcome recorded in this test, key = Cc1cc(C)n(Nc2nc3ccccc3[nH]c2=O)c(=O)c1C#N
**Result** inactive

**Query** # outcome recorded in this test, key = Cc1ccc(O)c(C(=O)O)c1
**Result** inactive

**Query** # outcome recorded in this test, key = COc1ccc(NC(=O)c2sc3nc(C)c(C(O)c4ccc(OC)cc4)cc3c2N)cc1 (stereo not given)
**Result** active

====

# Tested on: SF-295 CNS
# assay-text: NCI-60 one-dose screen, 48 h
# reported-conditions: 10 µM unless noted
The panel holds about 83,000 compounds, 20% with a hit somewhere; the sample as a whole holds those more often. Activity calls are given as the source filed them. How the source made its calls: active means growth percent below 10; inactive means the rest.
Choose one outcome from this list and give only that: active, inactive

Worked examples, 3 compounds total:
{"compound": "CC(=O)c1cccc(NS(=O)(=O)c2cccc(C(=O)Nc3ccc(Br)cc3)c2)c1", "answer-label": "inactive"}
{"compound": "COc1ccc(C2=NN(C(C)=O)C(c3cn(Cc4ccc(Cl)cc4)c4ccccc34)C2)cc1 (stereo not given)", "answer-label": "inactive"}
{"compound": "CCCCCCCCCCCCC1CCC/C=C\\CCC(=O)O1 (stereo not given)", "answer-label": "inactive"}

**Query** # outcome recorded in this test, key = O=C1c2ccccc2-c2c1c1c(NCCCO)nc3ccccc3c1n2Cc1ccccc1
**Result** inactive

**Query** # outcome recorded in this test, key = C(=N\Nc1ncc(-c2cc3cc4c(cc3o2)OCO4)s1)/c1c[nH]c2ccccc12
**Result** active

====

Entries annotated with measured growth
# Tested on: SF-295 CNS
# assay-text: NCI-60 one-dose screen, 48 h (100 = growth as untreated, 0 = no growth, -100 = all killed)
# reported-conditions: 10 µM unless noted
Compounds without any hit were thinned out: in the full panel of roughly 83,000, 20% have a hit.
Your answer should be a plain number; it is taken to be in %.

Use these answered entries as a reference point.
{"compound": "COc1ccccc1/C=C1\\COc2ccc(-c3ccccc3)cc2C1=O", "target-or-test-system": "SF-295 CNS", "numeric-readout": 22.2}
{"compound": "CN1CCN(CC#CCNC(=O)[C@]23CCC(C)(C)C[C@H]2C2=CC[C@@H]4[C@@]5(C)Cc6c([nH]c7ccccc67)C(C)(C)[C@@H]5CC[C@@]4(C)[C@]2(C)CC3)CC1", "target-or-test-system": "SF-295 CNS", "numeric-readout": 108}
{"compound": "COc1cc2nc(-c3ccc(C(F)(F)F)cc3)cc(OCCN3CCC(O)CC3)c2cc1OC", "target-or-test-system": "SF-295 CNS", "numeric-readout": 80.4}

**Query** Fill in the blank: the reported growth of O=C(Nc1ccc2cc3ccc(NC(=O)N4CCCCCC4)cc3nc2c1)N1CCCCCC1 is ____.
**Result** -79.4

**Query** Fill in the blank: the reported growth of CCN(CC)CCCCCCNc1cc(OC)cc2cccnc12 is ____.
**Result** 86.5

**Query** Fill in the blank: the reported growth of CCOC(=O)C1CC(=O)c2cc(OC)c(OC)cc2C1 (centres undefined) is ____.
**Result** 98.1

**Query** Fill in the blank: the reported growth of CC1=CC[C@@H]2CC[C@]3(C)[C@H](CC[C@@H]4[C@@]5(C)CCCNC(C)(C)[C@@H]5CC[C@]43C)[C@H]2[C@@H]1C is ____.
**Result** -35.2

**Query** Fill in the blank: the reported growth of CCc1c(Nc2ccc(C)cc2)[nH]c(N)nc1=S is ____.
**Result** 96.2

**Query** Fill in the blank: the reported growth of CC(=O)Nc1ccc(S(=O)(=O)NC2CCCCC2)cc1 is ____.
**Result** 96.4

**Query** Fill in the blank: the reported growth of Cc1ccc2[nH]c(=O)cc(-n3nncc3COc3ccc(C=O)cc3)c2c1 is ____.
**Result** 104
